Reference source for all entries: patent US20090202526A1

Target: T1, Human trkC-Fc fusion protein (human, UniProt Q16288 32-429)
T1 construct: Immobilised on CM5 chip for BIAcore; also called htrkC; not shown: Fc part not described
Assay: BIAcore SPR, Fab over immobilised human trkC-Fc
Property: koff; scope: individual binders
endpoint name: koff (s⁻¹)

| binder | uom | reported result |
| --- | --- | --- |
| Fab clone 129(T8)(H8xE10)(10B)(E2) (Fab, V domains shown) VH: QVQLVQSGAEVKKPGASVKVSCKASGYTFTSYRIHWVRQAPGQGLEWMGEIYPSNGRTNYNEKFKSRVTMTRDTSTSTVYMELSSLRSEDTAVYYCARKYYYGNTRRSWYFDVWGQGTTVTVS VL: DIQMTQSPSSLSASVGDRVTITCRASESIDNYGISFLAWYQQKPGKAPKLLIYAASNRGSGVPSRFSGSGSGTDFTFTISSLQPEDIATYYCQQSKTVPRTFGQGTKLEIKR | s⁻¹ | 0.00036 |
| Fab clone 129(C16) (Fab, V domains shown) VH: QVQLVQSGAEVKKPGASVKVSCKASGYTFTSYWMHWVRQAPGQGLEWMGEIYPSNGRTNYNEKFKSRVTMTLDTSTSTVYMQLSSLRSEDTAVYYCARKYYYGNSKRSWYFDVWGQGTTVTVS VL: DIQMTQSPSSLSASVGDRVTITCRASESVDNYGISFMNWYQQKPGKPPKLLMYAASNQGSGVPSRFSGSGSGTDFTFTISSLQPEDIATYYCQQSKEVPRTFGQGTKLEIKR | s⁻¹ | 0.0025 |
| Fab clone 129(T8)(E10) (Fab, V domains shown, Light chain changes are the same as in A5) VH: QVQLVQSGAEVKKPGASVKVSCKASGYTFTSYRLHWVRQAPGQGLEWMGEIYPSNGRTNYNEKFESRATMTGDKSTSTVYMELSSLRSEDTAVYYCARKYYYGNSRRSWYFDVWGQGTTVTVS VL: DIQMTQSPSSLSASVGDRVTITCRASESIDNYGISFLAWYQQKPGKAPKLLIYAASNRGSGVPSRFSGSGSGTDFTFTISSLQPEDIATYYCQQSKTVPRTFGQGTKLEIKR | s⁻¹ | 0.0016 |
